- assay target: human B1R receptor (CHO K1 cells stably transfected with the human B1R gene) (Homo sapiens, UniProt P46663)
- Construct: expressed in transfected cells; host or cells: CHO K1 cells (Chinese hamster ovary), stably transfected
- Sequence (P46663 1-353): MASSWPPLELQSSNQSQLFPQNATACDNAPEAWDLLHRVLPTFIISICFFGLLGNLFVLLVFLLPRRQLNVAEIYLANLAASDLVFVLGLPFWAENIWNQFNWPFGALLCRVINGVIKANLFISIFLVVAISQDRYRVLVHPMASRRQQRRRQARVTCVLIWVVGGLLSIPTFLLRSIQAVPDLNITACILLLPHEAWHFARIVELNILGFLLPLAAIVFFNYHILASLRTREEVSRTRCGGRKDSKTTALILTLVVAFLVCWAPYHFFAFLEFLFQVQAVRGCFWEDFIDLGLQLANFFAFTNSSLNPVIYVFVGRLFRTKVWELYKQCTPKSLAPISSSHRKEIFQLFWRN
- test summary: Functional study on the bradykinin receptor 1 (B1R), Ca2+ fluorescence (Fluo-4) FLIPR/Novostar assay, hB1R cells
- Type: cell-based
- conditions used: CHO-K1, read-out: % Inhibition (h-B1R) at 10 μM
A collection of compounds and their measured inhibition at 10 µM
metric name: inhibition at 10 µM

[[record]]
compound = "Cc1cc(N2CCC(N(C)C(=O)c3ccc4c(c3)C(NS(=O)(=O)Cc3ccccc3C(F)(F)F)CC4)CC2)cc(C)n1 (stereo not drawn)"
metric_name = "inhibition at 10 µM"
test_value = "100%"

[[record]]
compound = "CN(C(=O)c1ccc2c(c1)C(NC(=O)c1cc(F)ccc1Cl)CCO2)C1CCN(c2ccncc2)CC1 (stereo not drawn)"
metric_name = "inhibition at 10 µM"
test_value = "99%"

[[record]]
compound = "CN(C(=O)c1ccc2c(c1)C(NS(=O)(=O)Cc1ccccc1C(F)(F)F)CCC2)C1CCN(c2ccncc2)CC1 (stereo not drawn)"
metric_name = "inhibition at 10 µM"
test_value = "100%"

[[record]]
compound = "Cc1cc(N2CCC(N(C)C(=O)c3ccc4c(c3)C(NC(=O)c3cnccc3C(F)(F)F)CC4)CC2)cc(C)n1 (stereo not drawn)"
metric_name = "inhibition at 10 µM"
test_value = "100%"

[[record]]
compound = "Cc1cc(N2CCC(N(C)C(=O)c3ccc4c(c3)C(NC(=O)c3c(C)cccc3C)CC4)CC2)cc(C)n1 (stereo not drawn)"
metric_name = "inhibition at 10 µM"
test_value = "99%"

[[record]]
compound = "CC(C)CC(=O)NC1CCCc2ccc(C(=O)N(C)C3CCN(c4ccncc4)CC3)cc21 (stereo not drawn)"
metric_name = "inhibition at 10 µM"
test_value = "100%"

[[record]]
compound = "CN(C(=O)N(C)C1CCc2ccc(C(=O)N(C)C3CCN(c4ccncc4)CC3)cc21)c1ccccc1Cl (stereo not drawn)"
metric_name = "inhibition at 10 µM"
test_value = "99%"

[[record]]
compound = "Cc1cc(N2CCC(N(C)C(=O)c3ccc4c(c3)C(N(C)C(=O)CC(C)C)CC4)CC2)cc(C)n1 (stereo not drawn)"
metric_name = "inhibition at 10 µM"
test_value = "100%"

[[record]]
compound = "CN(C(=O)c1ccc2c(c1)C(NS(=O)(=O)c1c(Cl)cccc1C(F)(F)F)CCC2)C1CCN(c2ccncc2)CC1 (stereo not drawn)"
metric_name = "inhibition at 10 µM"
test_value = "99%"

[[record]]
compound = "CN(C(=O)c1ccc2c(c1)C(NC(=O)c1cncnc1)CCO2)C1CCN(c2ccncc2)CC1 (stereo not drawn)"
metric_name = "inhibition at 10 µM"
test_value = "68%"

[[record]]
compound = "CN(C(=O)c1ccc2c(c1)C(NC(=O)C1CCCCC1)CC2)C1CCN(c2ccncc2)CC1 (stereo not drawn)"
metric_name = "inhibition at 10 µM"
test_value = "100%"

[[record]]
compound = "CN(C(=O)c1ccc2c(c1)C(NS(=O)(=O)c1c(Cl)cccc1C(F)(F)F)CC2)C1CCN(c2ccncc2)CC1 (stereo not drawn)"
metric_name = "inhibition at 10 µM"
test_value = "100%"

[[record]]
compound = "Cc1cc(N2CCC(N(C)C(=O)c3ccc4c(c3)C(N(C)C(=O)c3ccccc3Cl)CC4)CC2)cc(C)n1 (stereo not drawn)"
metric_name = "inhibition at 10 µM"
test_value = "100%"

[[record]]
compound = "CN(C(=O)c1ccc2c(c1)C(NC(=O)C(C)(C)c1ccccc1Cl)CCC2)C1CCN(c2ccncc2)CC1 (stereo not drawn)"
metric_name = "inhibition at 10 µM"
test_value = "99%"

[[record]]
compound = "Cc1cc(N2CCC(N(C)C(=O)c3ccc4c(c3)C(N(C)S(=O)(=O)Cc3ccccc3C(F)(F)F)CC4)CC2)cc(C)n1 (stereo not drawn)"
metric_name = "inhibition at 10 µM"
test_value = "100%"

